test system: T-47D breast; experiment: NCI-60 one-dose screen, 48 h; conditions: 10 µM unless noted
This is part of a sample that, as a whole, favours compounds with a hit. Of some 83,000 tested, about 20% had one in any assay. Calls of active or inactive are those of the source. The calls were made as follows: active = growth percent below 10; inactive = the rest.
Give one outcome, nothing more. List: active, inactive

The following compounds have reported results that may help.
Prompt line: I'd appreciate the recorded outcome for `CCCCCCCCCCCCCCCCOC(=O)c1c(C)[nH]c(/C=C2\N=C(c3ccc[nH]3)C=C2OC)c1C` from this test.
Response line: inactive

Prompt line: I'd appreciate the recorded outcome for `CCOC(=O)C/C(=N\Nc1cc(=O)[nH]c2ccc(Cl)cc12)C(=O)OCC` from this test.
Response line: inactive

Prompt line: I'd appreciate the recorded outcome for COc1ccc(NC(=O)c2sc3nc(C)c(C(O)c4ccccc4)cc3c2N)cc1 (centres undefined) from this test.
Response line: inactive

Prompt line: I'd appreciate the recorded outcome for `C=C1C(=O)O[C@H]2[C@H]1CC/C(Cn1cc(-c3cc(C(F)(F)F)cc(C(F)(F)F)c3)nn1)=C\CC[C@@]1(C)O[C@@H]21` from this test.
Response line: active

Others:
Prompt line: I'd appreciate the recorded outcome for `CCOC(=O)C(=Cc1cccc(C#N)c1)C(=O)OCC` from this test.
Response line: inactive

Prompt line: I'd appreciate the recorded outcome for `COc1ccc(OC)c(-c2cn3nc(-c4c[nH]c5ccc(Br)cc45)sc3n2)c1` from this test.
Response line: inactive

Prompt line: I'd appreciate the recorded outcome for `CC(C)c1ccc(-n2c(=S)[nH]c3sc4c(c3c2=O)CCC(=O)C4)cc1` from this test.
Response line: inactive

Prompt line: I'd appreciate the recorded outcome for CC(CN)[C@@H]1CC[C@]2(CO)CC[C@]3(C)[C@H](CC[C@@H]4[C@@]5(C)CCC(N)C(C)(C)[C@@H]5CC[C@]43C)[C@@H]12 (some centres undefined) from this test.
Response line: active

Prompt line: I'd appreciate the recorded outcome for `COc1ccc(C/C(C)=C(\c2ccc(O)cc2)c2ccc(OCCN3CCCC3)cc2)cc1` from this test.
Response line: inactive

====

tested on: MDA-MB-435 melanoma; experiment: NCI-60 one-dose screen, 48 h; details: 10 µM unless noted
About 83,000 compounds went through this panel and 20% of them were active in at least one assay; those are over-represented in the sample as a whole. Active and inactive are the calls of the source. The calls were made as follows: active = growth percent below 10; inactive = the rest.
Give one outcome, nothing more. List: t = active, f = inactive

The following compounds have reported results that may help.
Prompt line: I'd appreciate the recorded outcome for `CCN(C(=O)N1CCN(c2cc3c(cc2F)c(=O)c(C(=O)O)cn3C2CC2)CC1)c1nc(-c2ccc(C)cc2)cs1` from this test.
Response line: f

Prompt line: I'd appreciate the recorded outcome for `CCCCCCCCn1ccc2cc(NC(=O)Cn3cc(CN4CCCCCC4)nn3)ccc21` from this test.
Response line: t

Prompt line: I'd appreciate the recorded outcome for `CC(=O)Nc1c(Cl)cc(Cl)c2c1Cc1cc([N+](=O)[O-])ccc1-2` from this test.
Response line: f

Prompt line: I'd appreciate the recorded outcome for `CCCCCCNc1nc(NCCCCCC)c2[nH]c(NCCCCCC)nc2n1` from this test.
Response line: f

Prompt line: I'd appreciate the recorded outcome for `C#CC#CC#CC#CC#CC#CC#CC#CC[C@H]1OC[C@@H](COC(=O)O[C@@H](C(=O)O[C@H]2C[C@@]3(O)[C@@H](OC(=O)c4ccccc4)[C@@H]4[C@]5(OC(C)=O)CO[C@@H]5C[C@H](O)[C@@]4(C)C(=O)[C@H](OC(C)=O)C(=C2C)C3(C)C)[C@@H](NC(=O)c2ccccc2)c2ccccc2)O1` from this test.
Response line: t

Others:
Prompt line: I'd appreciate the recorded outcome for `CNC(=O)c1cc(Oc2ccc3nc(NC(=O)Nc4ccc(Cl)c(Cl)c4)sc3c2)ccn1` from this test.
Response line: f

Prompt line: I'd appreciate the recorded outcome for `COc1cc2nc(Nc3cccc(F)c3)nc(Nc3cc(C)[nH]n3)c2cc1OC` from this test.
Response line: t

Data credit: PubChem BioAssay (NCI)
